Where a name gives a salt, the structure may show the parent alone.
Provide the reported melting point of each item.

Examples with answers:
> print(dat)
                                   compound     observable  measured.value
1  CCC(CC)(NC(=O)c1c(C)nn2c1NC(c1ccccc1C)CC2(C)C)c1ccc(C)cc1 (stereo not shown) (as salt: HCl)  melting point   187 to 188 °C
2  CCC(CC)(NC(=O)c1cnn2c1NC(c1ccccc1)CC2(C)C)c1ccc(F)c(F)c1 (stereo not shown)  melting point   171 to 172 °C

Provide the reported melting point of each entry below, same order.
1. CCC(NC(=O)c1cnn2c1NC(c1ccccc1)CC2(C)C)c1ccccc1Br (stereo not shown)
2. CC1(C)CC(c2ccccc2)Nc2c(C(=O)O)c(OCCO)nn21 (stereo not shown)
3. CCC1(NC(=O)c2cnn3c2NC(c2ccccc2)CC3(C)C)CC[S+]([O-])CC1 (stereo not shown)
4. CCC(CC)(NC(=O)c1cnn2c1NC(c1ccccc1)CC2(C)C)c1ccc(C(=O)O)cc1 (stereo not shown)
5. CCC(CC)(NC(=O)c1c(C)nn2c1NC(c1cccc(F)c1)CC2(C)C)c1ccc(C)cc1 (stereo not shown) (as salt: HCl)

(A)
200 to 201 °C
137 to 139 °C
172 to 173 °C
257 to 258 °C
152 to 155 °C

Provide each entry's melting point from the list below.
1. CCC(CC)(NC(=O)c1c(C)nn2c1NC(c1ccccc1)CC2(C)C)c1ccc(F)cc1 (stereo not shown)
2. CCC(CC)(NC(=O)c1cnn2c1NC(c1ccccc1)CC2(C)C)c1ccc(OC(C)=O)cc1 (stereo not shown)
3. O=C(O)c1cnn2c1NC(c1ccccc1Cl)CC2C(F)(F)F (stereo not shown)
4. O=C(NC12CC3CC(CC(C3)C1)C2)c1cnn2c1NC(c1ccccc1Cl)CC2C(F)(F)F (stereo not shown)
5. COc1ccc(C2CC(C(F)(F)F)n3ncc(C(=O)O)c3N2)cc1 (stereo not shown)

(A)
182 to 183 °C
171 to 172 °C
177 to 179 °C
256 to 257 °C
154 to 155 °C

// for each compound below, give its melting point
1. CCC(CC)(NC(=O)c1cnn2c1NC(c1ccccc1)CC2(C)C)c1ccc(Cl)cc1Cl (stereo not shown)
2. CCC1(CC)C[C@@H](O)CN1C(=O)c1c(C)nn2c1N[C@@H](c1ccccc1)CC2(C)C (as salt: HCl) [Example 1098]
3. CCC(CC)(NC(=O)c1cnn2c1N(C)C(c1ccccc1)CC2(C)C)c1ccc(C)cc1 (stereo not shown) (as salt: HCl)
4. CCC(CC)(NC(=O)c1cnn2c1NC(c1ccccc1)CC2(C)C)c1ccc(C(=O)OC(C)C)cc1 (stereo not shown)

(A)
["220 to 222 °C", "140 to 142 °C", "120 to 121 °C", "205 to 206 °C"]

====

I'd appreciate it if you could supply melting point values for the items below.
Where a name gives a salt, the structure may show the parent alone.

Worked cases, melting point given:
> print(dat)
                                   compound     observable  measured.value
1  CCC(CC)(NC(=O)c1cnn2c1NC(c1ccccc1)CC2(C)C)c1ccc(Br)cc1 (centres unmarked)  melting point   129 to 130 °C
2  CCOC(=O)c1ccc(C(CC)(CC)NC(=O)c2c(C)nn3c2NC(c2ccccc2)CC3(C)C)cc1 (centres unmarked)  melting point   152 to 153 °C
3  CCOc1ccc(C(CC)(CC)NC(=O)c2cnn3c2NC(c2ccccc2)CC3(C)C)cc1 (centres unmarked)  melting point   141 to 142 °C

Need melting point for each of these compounds.
1. O=C(O)c1cnn2c1NC(c1ccccc1)C1CCCCC12 (centres unmarked)
2. CCC1(CC)C[C@H](OCc2ccccc2)CN1C(=O)c1cnn2c1N[C@@H](c1ccccc1)CC2(C)C
3. CCC(CC)(NC(=O)c1cnn2c1NC(c1ccccc1)CC2(CC)CC)c1ccc(C(F)(F)F)cc1 (centres unmarked)
4. COc1ccc(C2CC(C(F)(F)F)n3ncc(C(=O)NC45CC6CC(CC(C6)C4)C5)c3N2)cc1 (centres unmarked)
5. CCC(CC)(NC(=O)c1cnn2c1NC(c1ccccc1)CC2(C)C)c1ccc(-c2cccnc2)cc1 (centres unmarked) (as salt: HCl)

(A)
["158 to 160 °C", "173 to 175 °C", "174 to 175 °C", "241 to 243 °C", "168 to 169 °C"]
